test system: PNT1-A; experiment: WST-1 cytotoxicity assay, PNT1-A; format: cell-based; details: Homo sapiens, PNT1A, 48 h
VALUE KIND: IC50
Answer format: number, then unit.

Problem: Return reported IC50. Input compound: O=c1[nH]cc(F)c(=O)[nH]1 [5-FU, 5-Fluorouracil, reference compound]
Solution: 21.2 µM

Next compound, please.
Problem: Return reported IC50. Input compound: NS(=O)(=O)c1ccc(CCNCc2cc(Br)ccc2O)cc1 [Compound E]
Solution: 167 µM

----------
tested on: PNT1-A; assay: WST-1 cytotoxicity assay, PNT1-A; assay type: cell-based; conditions: Homo sapiens, PNT1A, 72 h
pIC50 for assorted molecules
For clarity, pIC50 is expressed as the negative log10 of concentration in mol/L.

Problem: Return reported pIC50. Input molecule: O=c1[nH]cc(F)c(=O)[nH]1 [5-FU, 5-Fluorouracil, reference compound]
Solution: 4.76

Problem: Return reported pIC50. Input molecule: NS(=O)(=O)c1ccc(CCNCc2cc(Br)ccc2O)cc1
Solution: 3.40
